Test system: SW-620
Test Description: Growth inhibition of human SW620 cells after 48 hrs by sulforhodamine B assay
Format: functional
Condition Context: SW-620, 48 h
The entries below come with measured GI50 values attached.
Write it as a number; the unit µM goes unstated.

Here is how some compounds turned out for GI50.
* Nc1cc(N)c2nc(-c3ccccc3)c(Oc3ccc(Cl)c(Cl)c3)nc2c1 | 9.77
* COc1ccc(Oc2nc3cc(N)cc(N)c3nc2-c2ccccc2)cc1 | 89.1
* Nc1cc(N)c2nc(-c3ccccc3)c(Sc3ccc(F)cc3)nc2c1 | 22.9

# ---- query compound ----
Return reported GI50. Input compound: COc1ccc(CNc2nc3cc(N)cc(N)c3nc2-c2ccccc2)cc1OC
5.25
